These entries and their values trace back to patent US20170355774A1.

Target: T1, human GITR (amino acids M1-V241, NCBI Accession #NP_004186.1) expressed on cells (human, UniProt Q9Y5U5 26-241)
T1 construct: also called hGITR; hGITR/HEK293-D9
T1 sequence: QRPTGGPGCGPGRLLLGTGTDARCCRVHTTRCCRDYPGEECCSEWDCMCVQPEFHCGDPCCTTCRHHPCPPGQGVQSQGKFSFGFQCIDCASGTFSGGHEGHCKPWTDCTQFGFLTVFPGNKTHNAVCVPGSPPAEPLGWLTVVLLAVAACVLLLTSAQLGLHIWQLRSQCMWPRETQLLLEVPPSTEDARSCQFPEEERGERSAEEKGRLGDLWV
Assay: ECL cell binding, hGITR/HEK293-D9
Protocol: Nonspecific binding sites were blocked with 2% BSA (w/v)+PBS for 1 h at room temperature (RT). Next, serial dilutions of anti-GITR antibodies, ranging from 1.7 pM to 100 nM, were added to cells for 1 h at RT. Plates were then washed to remove unbound antibodies (AquaMax2000 plate washer, MSD Analytical Technologies) and plate-bound antibodies were detected with a SULFO-TAG™ conjugated anti-human kappa light chain IgG antibody (Jackson Immunoresearch) for 1 h at RT. […]
readout.label: Average Signal (RLU) at 100 nM

binder	observed.value
H4H14525P (antibody, human IgG4, V domains shown, human IgG4 (H4H)) VH: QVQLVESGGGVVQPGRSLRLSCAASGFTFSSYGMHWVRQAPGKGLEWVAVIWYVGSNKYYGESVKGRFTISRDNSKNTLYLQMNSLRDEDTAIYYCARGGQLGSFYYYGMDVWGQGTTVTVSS VL: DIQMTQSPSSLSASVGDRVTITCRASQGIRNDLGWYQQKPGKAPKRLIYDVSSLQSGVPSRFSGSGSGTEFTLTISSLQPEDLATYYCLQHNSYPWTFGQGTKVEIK	8840 RLU
H1H14524P (antibody, human IgG1, V domains shown, human IgG1 (H1H)) VH: QVQLVESGGGVAQPGRSLSLSCAASGFTFSDYGMHWVRQAPGKGLEWVAVIWYAGSNKYYADSVKDRFTISRDNSKNTLYLQMRSLRVEDTAVYYCARGGELRLDYYSGLDVWGQGTTVTVSS VL: DIQMTQSPSSLSASVGDRVTVTCRASQGIRSDLGWYQQKPGKAPKRLIYAASSFQSGVPSRFSGSGSGTEFTLTISSLHPEDFATYYCLQSNNYPWTFGQGTKVEIK	5740 RLU
H4H14508P (antibody, human IgG4, V domains shown, human IgG4 (H4H)) VH: QVQLVESGGGVVQPGRSLRLSCAASGLTVSSYVMHWVRQAPGKGLEWVAIIWYDGSNKYYGDSVKGRFTISRDNSKKTLYLQMNSLRAEDTAVYYCARGRPLSSSSSDYYGLDVWGQGTTVTVSS VL: AIQMTQSPSSLSASVGDRVTIICRASQGIRNDLGWYQQKPGKAPNLLIYAASSLQSGVPSRFSGSGSGTDFTLTISSLQPEDFATYYCLQDYNYPWTFGQGTKVEIK	6870 RLU

Now examine the next entry.
Which Average Signal (RLU) at 100 nM value is on record for H1H14474P (antibody, human IgG1, V domains shown, human IgG1 (H1H)) VH: QVQLVESGGGVVQPGRSLRLSCAASGFTFSSYGMDWVRQAPGKGLEWVAVIWYPGSNKYYADSVKGRFTVSRDNSKNTLYLQMNSLRAEDTAVYYCARDGELGLDYYSGMDVWGQGTTVTVSS VL: DIQMTQSPSSLSASVGDRVTITCRASQGIRNDLNWYQQKPGKAPKRLINGASSLQSGVPSRFSGSGSGTEFTLTISSLQPEDFATYYCLQLNSYPRTFGQGTKVEIK ?
6230 RLU
